Hey, just so you know, these numbers are from ChEMBL document CHEMBL5030530.

Listed next: entries and their corresponding Ratio IC50.
Assay: Selectivity index, ratio of IC50 for equine serum BuChE using butyrylthiocholine chloride as substrate to IC50 for electric eel AChE using acetylthiocholine iodide as substrate incubated for 15 to 20 mins by Ellman's method
Conditions: time 15-20 min
MEASUREMENT_NAME: Ratio IC50

MOLECULE: CC(C)=CCOc1ccc2c(c1)OC(c1ccccc1Cl)CC2=O (stereo unspecified)
RECORDED_VALUE: 1.69
//
MOLECULE: CC(C)=CCOc1ccc2c(c1)OC(c1cccc(Br)c1)CC2=O (stereo unspecified)
RECORDED_VALUE: 2.45
//
MOLECULE: COc1ccc(C2CC(=O)c3c(O)cc(OCC=C(C)C)cc3O2)c(OC)c1 (stereo unspecified)
RECORDED_VALUE: 60.7
//
MOLECULE: CC(C)=CCOc1ccc2c(c1)OC(c1cccc(F)c1)CC2=O (stereo unspecified)
RECORDED_VALUE: 2.72
//
MOLECULE: CC(C)=CCOc1ccc2c(c1)OC(c1ccc(Cl)cc1)CC2=O (stereo unspecified)
RECORDED_VALUE: 1.99
//
MOLECULE: COc1ccc(C2CC(=O)c3c(O)cc(OCC=C(C)C)cc3O2)cc1 (stereo unspecified)
RECORDED_VALUE: 21.4
//
MOLECULE: CC(C)=CCOc1ccc2c(c1)OC(c1ccc(O)cc1)CC2=O (stereo unspecified)
RECORDED_VALUE: 1.62
//
MOLECULE: CC(C)=CCOc1cc(O)c2c(c1)OC(c1ccccc1Br)CC2=O (stereo unspecified)
RECORDED_VALUE: 3.28
//
MOLECULE: CC(C)=CCOc1cc(O)c2c(c1)OC(c1ccc(O)cc1)CC2=O (stereo unspecified)
RECORDED_VALUE: 2.27
//
MOLECULE: COc1ccc(C2CC(=O)c3ccc(OCC=C(C)C)cc3O2)cc1 (stereo unspecified)
RECORDED_VALUE: 7.21
//
MOLECULE: CC(C)=CCOc1cc(O)c2c(c1)OC(c1ccc(Cl)cc1Cl)CC2=O (stereo unspecified)
RECORDED_VALUE: 6.67
